experiment: Cytotoxicity against human A549 cells assessed as inhibition of cell proliferation after 48 hrs by MTT assay; assay type: functional, cell-based; settings: A549, 48 h
measurement_type: IC50

Recorded results for 2 molecules are shown here.
structure_notation	reported_value
CCO[C@@H]1O[C@H]([C@@H](O)C(C)(C)O)C[C@H]1[C@@H]1CC[C@]2(C)C3=CC[C@H]4C(C)(C)[C@@H](O)CC[C@]4(C)C3=CC[C@@]12C	> 10 µM
C[C@@H](C[C@@H](O)[C@H](O)C(C)(C)O)[C@@H]1CC[C@]2(C)C3=CC(=O)[C@H]4C(C)(C)[C@@H](O)CC[C@]4(C)[C@H]3CC[C@@]12C	> 10 µM

Next item in the queue.
Q: Request the reported IC50 associated with CC(C)=CCC[C@H](C(=O)O)[C@@H]1CC[C@]2(C)C3=CC[C@@H]4[C@](C)(CC[C@H](O)[C@]4(C)CO)[C@H]3CC[C@@]12C
Result: > 10 µM

----------
Recorded pIC50 values for a group of compounds are listed next.
assay: Cytotoxicity against human MKN28 cells assessed as inhibition of cell proliferation after 48 hrs by MTT assay; format: functional, cell-based; details: MKN-28, 48 h
Friendly reminder that pIC50 comes from taking -log10 of the concentration in mol/L.

structure_notation	pIC50
CCO[C@H]1O[C@H](C(C)(C)O)[C@@H](O)C[C@H]1[C@@H]1CC[C@]2(C)C3=CC(=O)[C@H]4C(C)(C)C(=O)CC[C@]4(C)[C@H]3CC[C@@]12C	5.09

Continue with the compound presented below.
Q: Endpoint output: pIC50 of CC(C)=CCC[C@H](C(=O)O)[C@@H]1CC[C@]2(C)C3=CC[C@@H]4[C@](C)(CC[C@H](O)[C@]4(C)CO)[C@H]3CC[C@@]12C . Value?
Result: 5.04

----------
assay: Cytotoxicity against human A549 cells assessed as inhibition of cell proliferation after 48 hrs by MTT assay; format: functional, cell-based; details: A549, 48 h
Items are presented alongside their recorded IC50.

structure_notation	measurement_type	reported_value
C[C@@H](CC[C@H](O)C(C)(C)O)[C@@H]1CC[C@]2(C)C3=CC[C@H]4C(C)(C)C(=O)CC[C@]4(C)[C@H]3CC[C@@]12C	IC50	> 10 µM
C[C@@H](C[C@@H](O)[C@@H](O)C(C)(C)O)[C@@H]1CC[C@]2(C)C3=CC[C@H]4C(C)(C)C(=O)CC[C@]4(C)[C@H]3CC[C@@]12C	IC50	8 µM

Alright, here's another molecule for you.
Q: Given the molecule CCO[C@H]1O[C@@H]([C@H](O)C(C)(C)O)C[C@H]1[C@@H]1CC[C@]2(C)C3=CC=C4C(C)(C)C(=O)CC[C@]4(C)C3=CC[C@@]12C , what is its reported IC50?
Result: > 10 µM

----------
experiment: Cytotoxicity against human MKN28 cells assessed as inhibition of cell proliferation after 48 hrs by MTT assay; assay type: functional, cell-based; settings: MKN-28, 48 h
measurement_type: IC50

Record excerpt, results attached:
structure_notation	IC50
CCCCCC(=O)O[C@@H]1C[C@]2(C)C(=CC[C@H]2[C@]2(O)C[C@@H]([C@@H](O)C(C)(C)O)O[C@H]2OC)[C@]2(C)[C@H](O)C[C@H]3C(C)(C)C(=O)C=C[C@]3(C)[C@@H]12	> 10 µM
C[C@@H](C[C@@H](O)[C@H](O)C(C)(C)O)[C@@H]1CC[C@]2(C)C3=CC(=O)[C@H]4C(C)(C)[C@@H](O)CC[C@]4(C)[C@H]3CC[C@@]12C	> 10 µM
CCO[C@H]1O[C@@H]([C@H](O)C(C)(C)O)C[C@H]1[C@@H]1CC[C@]2(C)C3=CC[C@H]4C(C)(C)C(=O)CC[C@]4(C)C3=CC[C@@]12C	8.3 µM
CCOC(=O)CC[C@]1(C)[C@H]2CC[C@@]3(C)[C@H]([C@@H](C)CC/C=C(\C)CO)CC[C@]3(C)C2=CC[C@H]1C(C)(C)O	> 10 µM
COC(=O)[C@@H](CCC=C(C)C)[C@@H]1CC[C@]2(C)C3=CC[C@@H]4[C@](C)(CCC(=O)[C@]4(C)CO)[C@H]3CC[C@@]12C	8.3 µM
CCO[C@H]1O[C@@H]([C@H](O)C(C)(C)O)C[C@H]1[C@@H]1CC[C@]2(C)C3=CC[C@H]4C(C)(C)C(=O)CC[C@]4(C)[C@H]3CC[C@@]12C	> 10 µM

Next, consider the following compound.
Q: Using the record for CC(C)(O)[C@H]1OC[C@H]([C@@H]2CC[C@]3(C)C4=CC[C@H]5C(C)(C)C(=O)CC[C@]5(C)[C@H]4CC[C@@]23C)C[C@H]1O , report its IC50.
Result: > 10 µM
